B1: Pistol ribozyme (parent)
chain: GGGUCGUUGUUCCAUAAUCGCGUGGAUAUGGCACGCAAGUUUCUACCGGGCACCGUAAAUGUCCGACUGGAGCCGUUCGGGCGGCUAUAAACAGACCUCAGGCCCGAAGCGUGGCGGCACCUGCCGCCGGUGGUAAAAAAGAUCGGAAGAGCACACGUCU

# Variants of: B1
# test: aptazyme ON/OFF ratio, guanine; higher = stronger switching; co-transcriptional cleavage with and without guanine
measured_quantity: aptazyme ON/OFF ratio
Keep the answer to the number alone.

Example entries begin here.
Item: U7C U8A U10G C12G C13G | aptazyme ON/OFF ratio: 1.15

Item: U7A U8A G9C U10G U11A C12A | aptazyme ON/OFF ratio: 1.29

Item: U7A U8A G9U U10C U11C C12U C13U | aptazyme ON/OFF ratio: 1.08

Item: U7C U8G G9C U10A U11A | aptazyme ON/OFF ratio: 1.3

Item: U7C U8C G9A U11G C12G C13A | aptazyme ON/OFF ratio: 1.23

# evaluate next
Item: U7A U10G U11A C12U C13U | aptazyme ON/OFF ratio: 1.07
